Reference source: patent US6514997B2

- Test system: strains of human rhinovirus (HRV)
- assay protocol: Antirhinoviral H1-HeLa cell culture assay (XTT cell protection, EC50), other HRV strains
- Type: cell-based, human rhinovirus in H1-HeLa cells
- condition summary: H1-HeLa, HRV-23; read-out: EC50
Entries and their measured pEC50 follow.
# pEC50 = -log10(concentration in molar units)

>  <molecule>
Cc1cc(C(=O)Nc2cccn([C@@H](Cc3ccc(F)c(F)c3)C(=O)N[C@H](/C=C/C(=O)OC3CCC3)C[C@@H]3CCNC3=O)c2=O)no1 [Compound 58]

>  <test system>
strains of human rhinovirus (HRV)

>  <pEC50>
8.10

$$$$

Request: Write down pEC50 measured for item CCOC(=O)/C=C/[C@H](C[C@@H]1CCNC1=O)NC(=O)[C@H](Cc1ccc(F)c(F)c1)n1cccc(NC(=O)c2cc(C)on2)c1=O [Compound 33]
Result: 8.52

Request: Write down pEC50 measured for item Cc1cc(C(=O)Nc2cccn([C@@H](Cc3ccc(F)c(F)c3)C(=O)N[C@H](/C=C/C(=O)OC(C)(C)C)C[C@@H]3CCNC3=O)c2=O)no1 [Compound 46]
Result: 7.96

----------
- Test system: H1-HeLa cells
- assay protocol: Cytotoxicity (CC50) in mock-infected H1-HeLa cells, XTT dye reduction
- Format: cell-based, human
- condition summary: line of HRV-25
reported endpoint: CC50

Here is how some molecules turned out for CC50.
>  <molecule>
Cc1cc(C(=O)Nc2cccn([C@@H](Cc3ccc(F)c(F)c3)C(=O)N[C@H](/C=C/C(=O)OC(C)(C)C)C[C@@H]3CCNC3=O)c2=O)no1

>  <CC50>
> 10 µM

$$$$
>  <molecule>
C#CC[C@@H](C(=O)N[C@H](/C=C/C(=O)OC(C)(C)C)C[C@@H]1CCNC1=O)n1cccc(NC(=O)c2cc(C)on2)c1=O

>  <CC50>
> 10 µM

$$$$

Now look at this entry.
Request: Write down CC50 measured for item `CC[C@@H](C(=O)N[C@H](/C=C/C(=O)OC(C)C)C[C@@H]1CCNC1=O)n1cccc(NC(=O)c2cc(C)on2)c1=O`
Result: > 10 µM

----------
Entries and their measured CC50 at 2 days follow.
- assay protocol: Cytotoxicity (CC50) in mock-infected H1-HeLa cells, XTT dye reduction
- Format: cell-based, human
- condition summary: human, H1-HeLa cells, mock-infected; line of HRV-14

Here is how some compounds turned out for CC50 at 2 days.
>  <compound>
CCOC(=O)/C=C/[C@H](CCC(N)=O)NC(=O)[C@H](Cc1ccccc1)n1cccc(NC(=O)OCc2ccccc2)c1=O [Compound 1]

>  <reported endpoint>
CC50 at 2 days

>  <observed value>
50.1 µM

$$$$
>  <compound>
CCOC(=O)/C=C/[C@H](CCC(N)=O)NC(=O)[C@H](Cc1ccccc1)n1ccc(C)c(NC(=O)c2cc(C)on2)c1=O [Compound 18]

>  <reported endpoint>
CC50 at 2 days

>  <observed value>
> 10 µM

$$$$
>  <compound>
Cc1cc(C(=O)Nc2ccc3n(c2=O)[C@H](C(=O)N[C@H](/C=C2\CCOC2=O)C[C@@H]2CCNC2=O)CC3)no1 [Compound 38]

>  <reported endpoint>
CC50 at 2 days

>  <observed value>
> 100 µM

$$$$
>  <compound>
CCOC(=O)/C=C/[C@H](C[C@H]1CCNC1=O)NC(=O)[C@H](Cc1ccccc1)n1cccc(NC(=O)OCc2ccccc2)c1=O [Compound 21]

>  <reported endpoint>
CC50 at 2 days

>  <observed value>
> 10 µM

$$$$
>  <compound>
CCOC(=O)/C=C/[C@H](CCC(N)=O)NC(=O)Cn1cccc(NC(=O)OCc2ccccc2)c1=O [Compound 17]

>  <reported endpoint>
CC50 at 2 days

>  <observed value>
> 10 µM

$$$$

Request: Write down CC50 at 2 days measured for item CC[C@@H](C(=O)N[C@H](/C=C/C(=O)OC(C)(C)C)C[C@@H]1CCNC1=O)n1cccc(NC(=O)c2cc(C)on2)c1=O [Compound 34]
Result: > 10 µM

Request: Write down CC50 at 2 days measured for item CCOC(=O)/C=C/[C@H](C[C@@H]1CCNC1=O)NC(=O)[C@@H]1CCc2ccc(NC(=O)c3cc(C)on3)c(=O)n21 [Compound 37]
Result: > 10 µM

Request: Write down CC50 at 2 days measured for item Cc1cc(C(=O)Nc2cccn([C@@H](Cc3ccc(F)cc3)C(=O)N[C@H](/C=C3\CCOC3=O)C[C@@H]3CCNC3=O)c2=O)no1 [Compound 20]
Result: > 10 µM

----------
- System: MRC-5 cells
- assay protocol: Cytotoxicity (CC50) in uninfected MRC-5 cells, XTT dye reduction
- Type: cell-based, human
- condition summary: line of ENT-70
reported endpoint: CC50

Here is how some compounds turned out for CC50.
>  <molecule>
CCOC(=O)/C=C/[C@H](CCC(N)=O)NC(=O)[C@H](Cc1ccccc1)n1cccc(NC(=O)C2CCCC2)c1=O

>  <CC50>
> 10 µM

$$$$
>  <molecule>
CCOC(=O)/C=C/[C@H](CCC(N)=O)NC(=O)[C@H](Cc1ccccc1)n1cccc(NC(=O)OCc2ccccc2)c1=O

>  <CC50>
> 10 µM

$$$$

Request: Write down CC50 measured for item `CCOC(=O)/C=C\[C@H](CCC(N)=O)NC(=O)[C@H](Cc1ccccc1)n1cccc(NC(=O)c2cc(C)on2)c1=O`
Result: > 10 µM

----------
- test system: Recombinant rhinovirus 3C protease, serotype 14 (Human rhinovirus 14)
- Construct: Recombinant rhinovirus 3C proteases; made in house
- Sequence (P03303 1538-1719): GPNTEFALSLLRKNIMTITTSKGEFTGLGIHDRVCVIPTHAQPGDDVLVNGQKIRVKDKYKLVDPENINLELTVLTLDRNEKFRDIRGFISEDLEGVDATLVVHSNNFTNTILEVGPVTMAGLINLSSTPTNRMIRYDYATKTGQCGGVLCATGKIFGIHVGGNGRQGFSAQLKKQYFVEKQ
- assay protocol: Inhibition of rhinovirus 3C protease (FRET assay, kobs/[I]), serotype 14
- Assay type: biochemical
- condition summary: pH 7.6; HRV-14 3C protease; read-out: kobs/[I] (3C protease inhibition activity)
- Procedure: Inhibition of Rhinovirus 3C Protease: Stock solutions (50 mM, in DMSO) of various compounds were prepared; dilutions were in the same solvent. […] RVP activity was measured in the fluorescence resonance energy transfer assay. […]
reported endpoint: kinact/KI (M⁻¹ s⁻¹)
Give just the numeric value; M⁻¹ s⁻¹ need not be written.

>  <molecule>
Cc1cc(C(=O)Nc2cccn([C@@H](Cc3ccc(F)c(F)c3)C(=O)N[C@H](/C=C/C(=O)OC3CCCCCC3)C[C@@H]3CCNC3=O)c2=O)no1

>  <observed value>
99000

$$$$
>  <molecule>
C#CC[C@@H](C(=O)N[C@H](/C=C/C(=O)OC1CCCCC1)C[C@@H]1CCNC1=O)n1cccc(NC(=O)c2cc(C)on2)c1=O

>  <observed value>
34000

$$$$

Request: Report kinact/KI under test system Recombinant rhinovirus 3C protease, serotype 14 (Human rhinovirus 14) for `Cc1cc(C(=O)Nc2cccn([C@@H](Cc3ccccc3)C(=O)N[C@H](/C=C/C(=O)OC(C)C)C[C@@H]3CCNC3=O)c2=O)no1` .
Result: 480000

----------
- assay protocol: Cytotoxicity (CC50) in mock-infected H1-HeLa cells, XTT dye reduction
- Assay type: cell-based, human
- condition summary: human, mock-infected (uninfected) H1-HeLa cells; CVB3
Entries and their measured CC50 at 1 day follow.

>  <compound>
C#CC[C@@H](C(=O)N[C@H](/C=C/C(=O)OCc1ccccc1)C[C@@H]1CCNC1=O)n1cccc(NC(=O)c2cc(C)on2)c1=O

>  <CC50 at 1 day>
> 10 µM

$$$$

Request: Write down CC50 at 1 day measured for item `CC[C@@H](C(=O)N[C@H](/C=C/C(=O)OCc1ccccc1)C[C@@H]1CCNC1=O)n1cccc(NC(=O)c2cc(C)on2)c1=O`
Result: > 10 µM

Request: Write down CC50 at 1 day measured for item Cc1cc(CCCOc2c(C)cc(-c3noc(C(F)(F)F)n3)cc2C)on1 [Pleconaril, reference compound]
Result: > 10 µM

Request: Write down CC50 at 1 day measured for item CCOC(=O)c1ccc(OCCC2CCN(c3ccc(C)nn3)CC2)cc1 [Pirodavir, reference compound]
Result: > 100 µM

----------
- System: H1-HeLa cells
- assay protocol: Cytotoxicity (CC50) in mock-infected H1-HeLa cells, XTT dye reduction
- Assay type: cell-based, human
- condition summary: line of HRV-87
- Method: In this cell protection assay, the ability of compounds to protect cells against HRV infection was measured by the XTT dye reduction method, which is described in Weislow et al., J. Natl. Cancer Inst. […] Two days later, XTT/PMS was added to test plates and the amount of formazan produced was quantified spectrophotometrically at 450/650 nm. […] The therapeutic index (TI) was calculated by dividing the CC50 value by the EC50 value. […]
reported endpoint: CC50

>  <compound>
C#CC[C@@H](C(=O)N[C@H](/C=C/C(=O)OC1CCCC1)C[C@@H]1CCNC1=O)n1cccc(NC(=O)c2cc(C)on2)c1=O

>  <CC50>
> 10 µM

$$$$
>  <compound>
CCOC(=O)/C=C/[C@H](C[C@@H]1CCNC1=O)NC(=O)[C@@H]1CCc2ccc(NC(=O)c3cc(C)on3)c(=O)n21

>  <CC50>
> 10 µM

$$$$
>  <compound>
C#CC[C@@H](C(=O)N[C@H](/C=C/C(=O)OC(C)(C)C)C[C@@H]1CCNC1=O)n1cccc(NC(=O)c2cc(C)on2)c1=O

>  <CC50>
> 10 µM

$$$$
>  <compound>
CCOC(=O)/C=C/[C@H](C[C@@H]1CCNC1=O)NC(=O)[C@H](Cc1ccc(F)c(F)c1)n1cccc(NC(=O)c2cc(C)on2)c1=O

>  <CC50>
> 10 µM

$$$$
>  <compound>
CCOC(=O)/C=C/[C@H](C[C@@H]1CCNC1=O)NC(=O)[C@H](Cc1ccc(F)cc1)n1cccc(NC(=O)c2cc(C)on2)c1=O

>  <CC50>
> 10 µM

$$$$

Now look at this entry.
Request: Report CC50 under test system H1-HeLa cells for C#CC[C@@H](C(=O)N[C@H](/C=C/C(=O)OCC(C)(C)C)C[C@@H]1CCNC1=O)n1cccc(NC(=O)c2cc(C)on2)c1=O (relative stereo) .
Result: > 10 µM
